Assignment: determine reported EC50 for the given compounds.
# measured_target: human mGlu4 receptor (Homo sapiens (Human))
# method: Ca2+ mobilization in vitro assay on recombinant human mGlu4 expressed in HEK293 cells (mGlu4 PAM)
# Type: cell-based
# conditions_used: HEK293 cells stably expressing human mGlu4; L-AP4 added at EC20; read-out: EC50 (nM) mGlu4PAM
Your answer should be a plain number; it is taken to be in nM.

Q: What does the data say about its EC50? Entry: Cn1c(=O)n(-c2ccc(C#Cc3ccccc3)cc2Cl)c(=O)c2ccccc21 [Example 1]
Result: 150

Q: What does the data say about its EC50? Entry: COCCn1c(=O)n(-c2ccc(C#Cc3ccccc3)cc2Cl)c(=O)c2ccccc21 [Example 50]
Result: 499

Q: What does the data say about its EC50? Entry: CC(C)n1c(=O)n(-c2c(F)cc(C#Cc3ccccc3)cc2F)c(=O)c2nccnc21 [Example 68]
Result: 48

Q: What does the data say about its EC50? Entry: CC(C)n1c(=O)n(-c2ncc(C#Cc3ccccc3)cc2F)c(=O)c2nn(C)cc21 [Example 56]
Result: 121

Q: What does the data say about its EC50? Entry: Cc1cccc2c(=O)n(-c3c(F)cc(C#Cc4cccnc4)cc3Cl)c(=O)n(C)c12 [Example 43]
Result: 74

Q: What does the data say about its EC50? Entry: Cn1c(=O)n(-c2ncc(C#Cc3ccccc3)cc2Cl)c(=O)c2ccccc21 [Example 44]
Result: 372

Q: What does the data say about its EC50? Entry: Cn1c(=O)n(-c2ccc(C#Cc3ccccc3)cc2Cl)c(=O)c2ccc(Cl)cc21 [Example 4]
Result: 220

Q: What does the data say about its EC50? Entry: O=c1c2ccccc2n(C2CCC2)c(=O)n1-c1ccc(C#Cc2ccccc2)cc1Cl [Example 53]
Result: 102

Q: What does the data say about its EC50? Entry: Cc1ccc2c(=O)n(-c3ccc(C#Cc4ccccc4)cc3Cl)c(=O)n(C)c2c1 [Example 5]
Result: 93

Q: What does the data say about its EC50? Entry: Cc1csc2c(=O)n(-c3c(F)cc(C#Cc4cccnc4)cc3F)c(=O)n(C)c12 [Example 28]
Result: 29

Q: What does the data say about its EC50? Entry: Cn1cc2c(n1)c(=O)n(-c1c(F)cc(C#Cc3ccccc3)cc1F)c(=O)n2C [Example 33]
Result: 47

Q: What does the data say about its EC50? Entry: Cn1c(=O)n(-c2ccc(C#Cc3ccccc3)cc2Cl)c(=O)c2ncsc21 [Example 67]
Result: 246

Q: What does the data say about its EC50? Entry: Cc1csc2c(=O)n(-c3c(F)cc(C#Cc4ccccc4)cc3F)c(=O)n(C)c12 [Example 27]
Result: 16

Q: What does the data say about its EC50? Entry: Cn1c(=O)n(-c2ccc(C#Cc3ccccc3)cc2Cl)c(=O)c2cccc(Cl)c21 [Example 3]
Result: 137

Q: What does the data say about its EC50? Entry: CC(C)n1c(=O)n(-c2ncc(C#Cc3ccccc3)cc2Cl)c(=O)c2nn(C)cc21 [Example 60]
Result: 189

Q: What does the data say about its EC50? Entry: Cn1c(=O)n(-c2c(F)cc(C#Cc3ccccc3)cc2F)c(=O)c2nccc(Cl)c21 [Example 61]
Result: 91

Q: What does the data say about its EC50? Entry: CC(C)n1c(=O)n(-c2c(F)cc(C#Cc3cccnc3)cc2F)c(=O)c2nn(C)cc21 [Example 57]
Result: 65

====

# measured_target: human mGlu4 receptor (Homo sapiens (Human))
# method: Ca2+ mobilization in vitro assay on recombinant human mGlu4 expressed in HEK293 cells (mGlu4 PAM)
# Format: cell-based
# conditions_used: maximal response in % of the maximal stimulatory effect obtained with saturating concentrations of L-AP4
measured_parameter: Eff. (%)
Your answer should be a plain number; it is taken to be in %.

Q: What does the data say about its Eff. (%)? Entry: Cn1c(=O)n(-c2ccc(C#Cc3ccccc3)cc2Cl)c(=O)c2nccnc21 [Example 15]
Result: 111

Q: What does the data say about its Eff. (%)? Entry: COc1cccc2c(=O)n(-c3ccc(C#Cc4ccccc4)cc3Cl)c(=O)n(C)c12 [Example 65]
Result: 97

Q: What does the data say about its Eff. (%)? Entry: Cc1cccc2c(=O)n(-c3c(F)cc(C#Cc4ccccc4)cc3F)c(=O)n(C)c12 [Example 24]
Result: 101

Q: What does the data say about its Eff. (%)? Entry: COc1cccc2c(=O)n(-c3c(F)cc(C#Cc4ccccc4)cc3F)c(=O)n(C)c12 [Example 70]
Result: 152

====

# measured_target: human mGlu4 receptor (Homo sapiens (Human), UniProt Q14833)
# Sequence (Q14833 33-912): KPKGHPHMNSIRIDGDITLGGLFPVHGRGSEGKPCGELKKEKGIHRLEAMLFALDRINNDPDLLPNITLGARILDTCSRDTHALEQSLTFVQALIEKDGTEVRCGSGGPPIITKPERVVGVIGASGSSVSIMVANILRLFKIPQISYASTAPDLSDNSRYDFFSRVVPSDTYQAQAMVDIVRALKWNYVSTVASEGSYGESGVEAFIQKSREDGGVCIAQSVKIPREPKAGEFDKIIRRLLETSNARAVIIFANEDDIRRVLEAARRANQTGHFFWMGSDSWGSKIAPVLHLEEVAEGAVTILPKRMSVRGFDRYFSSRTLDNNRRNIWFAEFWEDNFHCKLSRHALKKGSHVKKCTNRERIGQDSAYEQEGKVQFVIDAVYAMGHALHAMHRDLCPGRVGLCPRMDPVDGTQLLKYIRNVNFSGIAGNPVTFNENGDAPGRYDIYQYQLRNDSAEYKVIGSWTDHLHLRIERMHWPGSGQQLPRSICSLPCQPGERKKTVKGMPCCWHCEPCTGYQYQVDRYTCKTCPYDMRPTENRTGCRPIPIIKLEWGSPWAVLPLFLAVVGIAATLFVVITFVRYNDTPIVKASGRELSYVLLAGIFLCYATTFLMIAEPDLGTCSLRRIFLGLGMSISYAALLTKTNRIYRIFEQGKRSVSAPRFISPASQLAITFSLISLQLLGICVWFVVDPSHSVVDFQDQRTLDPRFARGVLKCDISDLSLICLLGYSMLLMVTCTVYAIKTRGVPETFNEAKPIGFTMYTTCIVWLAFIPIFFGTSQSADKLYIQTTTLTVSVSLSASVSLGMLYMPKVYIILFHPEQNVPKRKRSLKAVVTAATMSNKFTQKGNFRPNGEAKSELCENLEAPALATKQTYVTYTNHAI
# method: Ca2+ mobilization in vitro assay on recombinant human mGlu4 expressed in HEK293 cells (mGlu4 PAM)
# Format: cell-based
# conditions_used: HEK293 cells stably expressing human mGlu4; L-AP4 added at EC20; read-out: EC50 (nM) mGlu4PAM
Note to self: use class 1 only for EC50 readings below 80 nM; a reading exactly at 80 nM still gets class 0.

Q: # TODO verify EC50 < 80 nM strictly for this molecule: `Cn1c(=O)n(-c2c(F)cc(C#Cc3ccccc3)cc2F)c(=O)c2cccc(OCC(F)F)c21`
Result: class 1

Q: # TODO verify EC50 < 80 nM strictly for this molecule: `CCc1cccc2c(=O)n(-c3ccc(C#Cc4ccccc4)cc3Cl)c(=O)n(C)c12`
Result: class 1

Q: # TODO verify EC50 < 80 nM strictly for this molecule: `COc1cccc2c(=O)n(-c3c(F)cc(C#Cc4ccccc4)cc3F)c(=O)n(C)c12`
Result: class 1

Q: # TODO verify EC50 < 80 nM strictly for this molecule: `CC(C)n1c(=O)n(-c2c(F)cc(C#Cc3cccnc3)cc2Cl)c(=O)c2nn(C)cc21`
Result: class 1

Q: # TODO verify EC50 < 80 nM strictly for this molecule: `O=c1[nH]c2ncncc2c(=O)n1-c1ccc(C#Cc2ccccc2)cc1Cl`
Result: class 0

Q: # TODO verify EC50 < 80 nM strictly for this molecule: `Cn1c(=O)n(-c2ccc(C#Cc3ccccc3)cc2Cl)c(=O)c2cnccc21`
Result: class 0

Q: # TODO verify EC50 < 80 nM strictly for this molecule: `Cn1c(=O)n(-c2ccc(C#Cc3ccccc3)cc2Cl)c(=O)c2cncnc21`
Result: class 0

Q: # TODO verify EC50 < 80 nM strictly for this molecule: `Cc1cccc2c(=O)n(-c3ncc(C#Cc4ccccc4)cc3Cl)c(=O)n(C)c12`
Result: class 0

Q: # TODO verify EC50 < 80 nM strictly for this molecule: `Cc1cccc2c(=O)n(-c3ncc(C#Cc4ccccc4)cc3F)c(=O)n(C)c12`
Result: class 0

Q: # TODO verify EC50 < 80 nM strictly for this molecule: `COc1cccc2c(=O)n(-c3ccc(C#Cc4ccccc4)cc3Cl)c(=O)n(C)c12`
Result: class 1

Q: # TODO verify EC50 < 80 nM strictly for this molecule: `O=c1c2ccccc2n(C2COC2)c(=O)n1-c1c(F)cc(C#Cc2cccnc2)cc1Cl`
Result: class 0

Q: # TODO verify EC50 < 80 nM strictly for this molecule: `Cc1ccc2c(=O)n(-c3c(F)cc(C#Cc4ccccc4)cc3F)c(=O)n(C)c2c1`
Result: class 0

Q: # TODO verify EC50 < 80 nM strictly for this molecule: `Cn1ncc2c1c(=O)n(-c1c(F)cc(C#Cc3ccccc3)cc1F)c(=O)n2C`
Result: class 1

Q: # TODO verify EC50 < 80 nM strictly for this molecule: `Cc1cccc2c(=O)n(-c3ccc(C#Cc4ccccc4)cc3Cl)c(=O)n(C)c12`
Result: class 0

Q: # TODO verify EC50 < 80 nM strictly for this molecule: `Cn1c(=O)n(-c2c(F)cc(C#Cc3ccccc3)cc2F)c(=O)c2ccccc21`
Result: class 0

Q: # TODO verify EC50 < 80 nM strictly for this molecule: `Cn1c(=O)n(-c2ncc(C#Cc3ccccc3)cc2C(F)(F)F)c(=O)c2ccccc21`
Result: class 0

====

# measured_target: human mGlu4 receptor (Homo sapiens (Human), UniProt Q14833)
# method: Ca2+ mobilization in vitro assay on recombinant human mGlu4 expressed in HEK293 cells (mGlu4 PAM)
# Type: cell-based
# conditions_used: maximal response in % of the maximal stimulatory effect obtained with saturating concentrations of L-AP4
Assignment: determine reported Eff. (%) for the given compounds.
Your answer should be a plain number; it is taken to be in %.

Q: What does the data say about its Eff. (%)? Entry: O=c1c2cccc3c2n(c(=O)n1-c1ccc(C#Cc2ccccc2)cc1Cl)CC3 [Example 12]
Result: 106

Q: What does the data say about its Eff. (%)? Entry: CC(C)n1c(=O)n(-c2c(F)cc(C#Cc3ccccc3)cc2F)c(=O)c2nccnc21 [Example 68]
Result: 225

Q: What does the data say about its Eff. (%)? Entry: Cn1c(=O)n(-c2ccc(C#Cc3ccccc3)cc2Cl)c(=O)c2sc(N3CCOCC3)nc21 [Example 51]
Result: 127

Q: What does the data say about its Eff. (%)? Entry: O=c1c2ccccc2n(C2COC2)c(=O)n1-c1c(F)cc(C#Cc2cccnc2)cc1Cl [Example 71]
Result: 103
